- EXPERIMENT_DESCRIPTION: MTT assay, cytotoxicity against normal HEK293 cells
- Type: cell-based, human
- CONDITIONS: human, HEK293 cells
Lab note: cut-off is 40%. Strictly less in viability at 48 h, 150 μM is rule met. Exactly 40% or more is rule not met.

Incoming: In the record for CC(C)Cc1ccc(C(C)C(=O)NN=Cc2ccc(OCC(=O)NN=Cc3cc(Br)c(O)c(Br)c3)cc2)cc1 (stereo not drawn) , is viability at 48 h, 150 μM less than 40%?
Outgoing: rule not met

Incoming: Queued: CC(C)Cc1ccc(C(C)C(=O)NN=Cc2ccc(OCC(=O)NN=Cc3ccc(Cl)cc3Cl)cc2)cc1 (stereo not drawn)
Outgoing: rule not met

Incoming: Queued: CC(C)Cc1ccc(C(C)C(=O)NN=Cc2ccc(OCC(=O)NN=Cc3ccc(O)cc3O)cc2)cc1 (stereo not drawn)
Outgoing: rule not met

Incoming: Queued: CCN(CC)c1ccc(C=NNC(=O)COc2ccc(C=NNC(=O)C(C)c3ccc(CC(C)C)cc3)cc2)cc1 (stereo not drawn)
Outgoing: rule met

Incoming: Queued: CC(C)Cc1ccc(C(C)C(=O)NN=Cc2ccc(OCC(=O)NN=Cc3ccc(Br)cc3F)cc2)cc1 (stereo not drawn)
Outgoing: rule met

Incoming: Queued: CC(C)Cc1ccc(C(C)C(=O)NN=Cc2ccc(OCC(=O)NN=Cc3ccc(F)cc3)cc2)cc1 (stereo not drawn)
Outgoing: rule met
